Hey, just so you know, these numbers are from the emibetuzumab library of Makowski et al. (2022).

B1: VH:VL chains; a variant is named by its letters at X, in order (parent)
chain 1: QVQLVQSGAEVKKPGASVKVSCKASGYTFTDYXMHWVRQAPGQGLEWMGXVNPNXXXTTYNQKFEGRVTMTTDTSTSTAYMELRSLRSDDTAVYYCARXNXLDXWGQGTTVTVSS
chain 2: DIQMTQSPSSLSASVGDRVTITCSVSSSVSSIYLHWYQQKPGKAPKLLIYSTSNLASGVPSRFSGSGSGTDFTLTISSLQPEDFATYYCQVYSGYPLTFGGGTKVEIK

Variants of: B1
assay_method_text: yeast display scFab, FACS + sequencing

mutant_label	non-specific binding call
YRGGTFGF	binds
SEARSDVV	no binding
VEKEGDGA	no binding
YRRGSAVA	binds
YRARGVGA	binds
SARTDFWF chain 1 K19N	binds
YRRRGSLS	binds
SEARSDLY	no binding
VRTRGAVD	binds
AAKEGALV	no binding
VRTKDFSY	no binding
VAGTGDGV	no binding
YRRGGAAY	binds
YEKEDYLA chain 1 G108D	no binding
YRRRGSWS	binds
VRGKDSLD	no binding
AKRGAFAD	binds
YAGAGSAD	no binding
VTGEDAGS	no binding
VKGRADGV	no binding
DAEATSLV	no binding
YRGRSAAY	binds
FRARGSWV	binds
DAGGGAVA	no binding
VEGGTDVA	no binding
DEGGTSAD	no binding
YRRRGAWA	binds
YEGGGDGA	no binding
FKKGSAAV	binds
VRRRGSGD	binds
YGAAGSAA	binds
DTGGGDLA	no binding
VTETGSLV	no binding
YRGRGDSV	no binding
VRAGADAV	no binding
SKEGGVGV	binds
